Target: C-Raf FL (Homo sapiens (Human), UniProt P04049, Y340E/Y341E)
Sequence (P04049 whole entry Y340E/Y341E): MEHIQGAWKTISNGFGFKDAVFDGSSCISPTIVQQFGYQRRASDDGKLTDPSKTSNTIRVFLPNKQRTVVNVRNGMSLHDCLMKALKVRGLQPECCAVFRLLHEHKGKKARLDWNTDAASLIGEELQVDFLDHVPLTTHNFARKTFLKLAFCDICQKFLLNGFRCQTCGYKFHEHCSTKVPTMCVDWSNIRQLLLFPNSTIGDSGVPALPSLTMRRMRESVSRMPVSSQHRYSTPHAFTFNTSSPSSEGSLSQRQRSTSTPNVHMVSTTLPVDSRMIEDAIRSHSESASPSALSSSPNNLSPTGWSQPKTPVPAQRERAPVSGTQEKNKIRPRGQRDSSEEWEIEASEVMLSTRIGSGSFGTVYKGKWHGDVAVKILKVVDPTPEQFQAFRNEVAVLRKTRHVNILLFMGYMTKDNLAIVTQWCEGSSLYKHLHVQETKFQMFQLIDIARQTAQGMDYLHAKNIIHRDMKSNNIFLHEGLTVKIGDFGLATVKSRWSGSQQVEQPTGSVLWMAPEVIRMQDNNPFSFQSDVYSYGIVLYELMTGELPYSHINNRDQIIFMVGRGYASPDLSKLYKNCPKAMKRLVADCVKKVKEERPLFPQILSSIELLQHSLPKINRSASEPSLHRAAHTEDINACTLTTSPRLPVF
Sequence (P63104 whole entry partner): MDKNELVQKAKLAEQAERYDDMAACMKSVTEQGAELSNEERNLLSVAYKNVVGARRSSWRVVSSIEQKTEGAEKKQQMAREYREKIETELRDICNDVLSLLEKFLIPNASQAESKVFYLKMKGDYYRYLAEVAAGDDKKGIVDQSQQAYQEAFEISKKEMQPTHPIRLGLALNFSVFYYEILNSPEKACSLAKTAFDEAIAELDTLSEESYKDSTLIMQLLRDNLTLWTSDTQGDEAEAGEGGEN
Experiment: In vitro Raf activity determination (Alpha Screen, phospho-MEK), C-Raf FL (full length, Y340E/Y341E)
Conditions: ATP 1 μM; 60 min pre-incubation; 1 hour reaction; column head does not say FL or TR
pIC50: −log10 of the molar value.
measure: pIC50

Previously resolved entries follow.
INSERT INTO assay_data (record_smiles, result) VALUES
  ('CCOc1nnc(-c2cc(NC(=O)c3ccc4c(c3)CNC4)ccc2C)cc1C1CCOCC1', 9.05),
  ('Cc1ccc(NC(=O)c2ccnc(C(F)(F)F)c2)cc1-c1cc(C2CCOCC2)nc(N2CCC(C)(N)CC2)c1', 10.05),
  ('CCOc1ncc(-c2cc(NC(=O)c3cnnc(C(C)(C)C#N)c3)cnc2C)cc1C1CCOCC1', 8.70),
  ('COc1ncc(-c2cc(NC(=O)c3cc(C(C)(C)N)cc(C(F)(F)F)c3)cnc2C)cc1C1(C#N)COC1', 8.49);

[P] Cc1ccc(NC(=O)c2cc(C(F)(F)F)ccn2)cc1-c1cc(OCCO)nc(C2CCOCC2)c1
[Q] Cc1ccc(NC(=O)c2cc(C(F)(F)F)c(Cl)cn2)cc1-c1cc(OCCO)nc(C2CCOCC2)c1
Task for the reader: decide whether P or Q has the larger pIC50. API: response body contains the label of the selected item.
P
(P: 10.30, Q: 8.70)
